- experimental-system: DRB1*0404 (Homo sapiens, UniProt P01903+P01911, A100R/A169T/F76Y/I96L/K127E/L162R/M171V/N62H/P40V/Q125Y/R42H/S133A/S149N/S66Y/V209L/W38E)
- assay-remarks: biochemical
pIC50: −log10 of the molar value.
Readings of pIC50 for the listed compounds
observable: pIC50

smiles-representation	result
CC[C@H](C)[C@H](NC(=O)[C@H](CC(C)C)NC(=O)[C@H](CC(N)=O)NC(=O)[C@H](Cc1ccc(O)cc1)NC(=O)[C@H](CC(N)=O)NC(=O)[C@@H]1CCCN1)C(=O)N[C@H](C(=O)N[C@@H](CCSC)C(=O)N[C@@H](CC(=O)O)C(=O)N[C@@H](CCC(=O)O)C(=O)N[C@@H](C)C(=O)N[C@@H](Cc1c[nH]cn1)C(=O)N[C@@H](Cc1ccccc1)C(=O)N[C@H](C(=O)N[C@@H](CC(=O)O)C(=O)O)[C@@H](C)O)[C@@H](C)CC	5.81
CC[C@H](C)[C@H](NC(=O)[C@H](CCC(=O)O)NC(=O)CNC(=O)[C@@H](NC(=O)[C@@H](NC(=O)[C@@H](NC(=O)[C@H](CCC(N)=O)NC(=O)[C@H](Cc1ccccc1)NC(=O)[C@@H](NC(=O)CNC(=O)[C@@H]1CCCN1C(=O)[C@H](CCSC)NC(=O)[C@@H](NC(=O)[C@H](CCC(N)=O)NC(=O)[C@@H](N)Cc1ccccc1)[C@@H](C)O)[C@@H](C)O)[C@@H](C)O)[C@@H](C)O)[C@@H](C)O)C(=O)O	6.02
CSCC[C@H](NC(=O)[C@H](CCC(N)=O)NC(=O)[C@H](C)NC(=O)[C@H](Cc1ccc(O)cc1)NC(=O)[C@H](C)NC(=O)[C@H](CCCCN)NC(=O)CNC(=O)[C@H](CC(C)C)NC(=O)[C@H](CS)NC(=O)[C@H](C)NC(=O)[C@@H](NC(=O)[C@H](CCC(=O)O)NC(=O)[C@H](CCCNC(=N)N)NC(=O)[C@H](CC(C)C)NC(=O)[C@@H](N)CO)[C@@H](C)O)C(=O)N[C@@H](Cc1c[nH]c2ccccc12)C(=O)N[C@H](C(=O)O)[C@@H](C)O	6.95
CC[C@H](C)[C@H](NC(=O)[C@H](CC(=O)O)NC(=O)CNC(=O)[C@@H](NC(=O)[C@@H](NC(=O)[C@@H](NC(=O)[C@@H](NC(=O)[C@H](CC(C)C)NC(=O)[C@@H](N)CCCCN)[C@@H](C)O)C(C)C)C(C)C)C(C)C)C(=O)N[C@H](C(=O)NCC(=O)N[C@H](C(=O)N[C@@H](CC(C)C)C(=O)N[C@@H](CCC(=O)O)C(=O)N[C@@H](CCC(N)=O)C(=O)O)C(C)C)[C@@H](C)CC	5.57
CC(C)C[C@H](NC(=O)[C@H](C)NC(=O)[C@H](CC(C)C)NC(=O)[C@@H]1CCCN1)C(=O)N[C@@H](CCCCN)C(=O)N[C@@H](CCC(=O)O)C(=O)N[C@@H](Cc1ccccc1)C(=O)N[C@@H](CCCCN)C(=O)N[C@@H](CC(=O)O)C(=O)N[C@@H](Cc1ccccc1)C(=O)N[C@@H](C)C(=O)N[C@@H](C)C(=O)NCC(=O)N[C@@H](CCCNC(=N)N)C(=O)N[C@@H](CCCCN)C(=O)O	5.65
CC[C@H](C)[C@H](NC(=O)[C@H](Cc1c[nH]c2ccccc12)NC(=O)[C@H](Cc1ccc(O)cc1)NC(=O)CNC(=O)[C@H](CCSC)NC(=O)[C@H](CC(=O)O)NC(=O)[C@H](C)NC(=O)[C@H](Cc1c[nH]cn1)NC(=O)[C@@H](NC(=O)[C@H](C)N)C(C)C)C(=O)N[C@@H](CCC(=O)O)C(=O)N[C@@H](CO)C(=O)N[C@@H](CCC(N)=O)C(=O)N[C@@H](CCCCN)C(=O)N[C@@H](CC(N)=O)C(=O)O	5.24
CC[C@H](C)[C@H](NC(=O)[C@@H](N)CCCCN)C(=O)N1CCC[C@H]1C(=O)NCC(=O)NCC(=O)N[C@@H](C)C(=O)N[C@@H](CCSC)C(=O)N[C@@H](Cc1ccc(O)cc1)C(=O)N[C@@H](C)C(=O)N[C@@H](CC(=O)O)C(=O)N[C@@H](CC(=O)O)C(=O)N[C@H](C(=O)N[C@@H](C)C(=O)NCC(=O)N[C@@H](Cc1c[nH]c2ccccc12)C(=O)N[C@@H](CC(=O)O)C(=O)N[C@H](C(=O)O)[C@@H](C)O)[C@@H](C)O	5.50
CC[C@H](C)[C@H](NC(=O)[C@H](C)NC(=O)[C@H](CC(N)=O)NC(=O)[C@H](C)NC(=O)[C@H](CC(C)C)NC(=O)[C@H](CCC(N)=O)NC(=O)[C@H](CCCNC(=N)N)NC(=O)[C@H](Cc1c[nH]cn1)NC(=O)[C@H](CCC(=O)O)NC(=O)[C@@H]1CCCN1)C(=O)N[C@@H](Cc1ccccc1)C(=O)N[C@@H](CCCCN)C(=O)N[C@@H](CC(C)C)C(=O)N[C@H](C(=O)N[C@@H](Cc1ccc(O)cc1)C(=O)N[C@@H](CCC(N)=O)C(=O)N[C@@H](CC(N)=O)C(=O)O)[C@@H](C)O	5.58
CSCC[C@H](NC(=O)[C@H](CC(C)C)NC(=O)[C@H](CCCNC(=N)N)NC(=O)[C@H](Cc1c[nH]cn1)NC(=O)[C@H](CC(=O)O)NC(=O)[C@H](CS)NC(=O)[C@H](CC(C)C)NC(=O)[C@H](CCC(N)=O)NC(=O)[C@@H](NC(=O)[C@H](Cc1ccc(O)cc1)NC(=O)[C@@H](NC(=O)[C@@H](N)CCC(=O)O)C(C)C)[C@@H](C)O)C(=O)N[C@@H](CO)C(=O)N[C@@H](C)C(=O)N[C@@H](C)C(=O)O	5.89

----------
- experimental-system: DRB1*0404 (Homo sapiens, UniProt P01903+P01911, A100R/A169T/F76Y/I96L/K127E/L162R/M171V/N62H/P40V/Q125Y/R42H/S133A/S149N/S66Y/V209L/W38E)
- assay-remarks: biochemical

smiles-representation	IC50 / nM
CC[C@H](C)[C@H](NC(=O)[C@H](CC(N)=O)NC(=O)CNC(=O)[C@@H](NC(=O)CNC(=O)[C@H](CC(N)=O)NC(=O)[C@@H](N)CO)[C@@H](C)O)C(=O)N[C@H](C(=O)N[C@@H](CO)C(=O)N[C@@H](CO)C(=O)N[C@H](C(=O)N[C@@H](CC(N)=O)C(=O)N[C@@H](CCSC)C(=O)N[C@H](C(=O)N[C@@H](CO)C(=O)N[C@@H](CCCNC(=N)N)C(=O)N[C@@H](CC(C)C)C(=O)O)C(C)C)C(C)C)C(C)C	84
CC[C@H](C)[C@H](NC(=O)[C@H](C)NC(=O)[C@H](CC(N)=O)NC(=O)[C@H](CO)NC(=O)[C@H](C)NC(=O)[C@H](CC(C)C)NC(=O)[C@H](CCCNC(=N)N)NC(=O)[C@H](CC(C)C)NC(=O)[C@H](CC(=O)O)NC(=O)[C@H](CCCNC(=N)N)NC(=O)[C@@H](N)CCCNC(=N)N)C(=O)N[C@@H](CS)C(=O)N[C@@H](CO)C(=O)N[C@@H](C)C(=O)N[C@H](C(=O)N1CCC[C@H]1C(=O)N[C@H](C(=O)O)C(C)C)C(C)C	93
CSCC[C@H](NC(=O)[C@@H](NC(=O)[C@H](CCC(N)=O)NC(=O)[C@H](Cc1ccccc1)NC(=O)[C@H](CC(N)=O)NC(=O)[C@H](CCCCN)NC(=O)[C@@H]1CCCN1C(=O)[C@@H](N)CC(N)=O)[C@@H](C)O)C(=O)N1CCC[C@H]1C(=O)NCC(=O)N[C@H](C(=O)N[C@@H](Cc1ccccc1)C(=O)N[C@@H](CCC(N)=O)C(=O)N[C@H](C(=O)N[C@H](C(=O)O)[C@@H](C)O)[C@@H](C)O)[C@@H](C)O	39
CC[C@H](C)[C@H](NC(=O)[C@H](CC(C)C)NC(=O)[C@H](CCCCN)NC(=O)CN)C(=O)N[C@@H](Cc1c[nH]cn1)C(=O)N[C@@H](CCC(=O)O)C(=O)N[C@@H](Cc1c[nH]c2ccccc12)C(=O)N[C@@H](CS)C(=O)N[C@@H](CS)C(=O)N[C@@H](CCCNC(=N)N)C(=O)N[C@@H](CO)C(=O)N[C@@H](CS)C(=O)N[C@H](C(=O)N[C@@H](CC(C)C)C(=O)N1CCC[C@H]1C(=O)O)[C@@H](C)O	4390

----------
- experimental-system: DRB1*0101 (Homo sapiens, UniProt P01903+P01911, A100R/D57E/F55L/F60I/F76Y/I96L/L162R/M171V/P40L/Q125E/R42F/V115G/Y59C)
- assay-remarks: biochemical
pIC50: −log10 of the molar value.
Readings of pIC50 for the listed compounds

smiles-representation	pIC50
CC(C)C[C@H](NC(=O)[C@@H](NC(=O)CNC(=O)[C@H](CC(N)=O)NC(=O)[C@H](CO)NC(=O)[C@H](Cc1c[nH]c2ccccc12)NC(=O)[C@H](CC(C)C)NC(=O)[C@@H](NC(=O)[C@H](Cc1c[nH]cn1)NC(=O)[C@H](CO)NC(=O)[C@H](CCCCN)NC(=O)[C@@H]1CCCN1C(=O)[C@@H](N)Cc1c[nH]c2ccccc12)[C@@H](C)O)C(C)C)C(=O)N[C@@H](CCC(=O)O)C(=O)N[C@@H](CO)C(=O)O	5.41
CC[C@H](C)[C@H](NC(=O)[C@@H](N)CCCCN)C(=O)N1CCC[C@H]1C(=O)NCC(=O)NCC(=O)N[C@@H](C)C(=O)N[C@@H](CCSC)C(=O)N[C@@H](Cc1ccc(O)cc1)C(=O)N[C@@H](C)C(=O)N[C@@H](CC(=O)O)C(=O)N[C@@H](CC(=O)O)C(=O)N[C@H](C(=O)N[C@@H](C)C(=O)NCC(=O)N[C@@H](Cc1c[nH]c2ccccc12)C(=O)N[C@@H](CC(=O)O)C(=O)N[C@H](C(=O)O)[C@@H](C)O)[C@@H](C)O	6.13
C[C@@H](O)[C@H](NC(=O)[C@H](CO)NC(=O)[C@H](CO)NC(=O)[C@H](Cc1c[nH]cn1)NC(=O)[C@H](CCC(=O)O)NC(=O)[C@H](CCC(=O)O)NC(=O)[C@@H](N)CCCCN)C(=O)N[C@@H](Cc1c[nH]c2ccccc12)C(=O)N[C@@H](Cc1c[nH]cn1)C(=O)N[C@@H](Cc1ccc(O)cc1)C(=O)N[C@@H](CC(=O)O)C(=O)N[C@@H](CC(=O)O)C(=O)N[C@@H](CCC(=O)O)C(=O)N[C@@H](CC(N)=O)C(=O)N1CCC[C@H]1C(=O)N[C@@H](Cc1ccc(O)cc1)C(=O)N[C@@H](CCCCN)C(=O)O	5.68
CSCC[C@H](NC(=O)[C@H](CCC(N)=O)NC(=O)[C@H](C)NC(=O)[C@H](Cc1ccc(O)cc1)NC(=O)[C@H](C)NC(=O)[C@H](CCCCN)NC(=O)CNC(=O)[C@H](CC(C)C)NC(=O)[C@H](CS)NC(=O)[C@H](C)NC(=O)[C@@H](NC(=O)[C@H](CCC(=O)O)NC(=O)[C@H](CCCNC(=N)N)NC(=O)[C@H](CC(C)C)NC(=O)[C@@H](N)CO)[C@@H](C)O)C(=O)N[C@@H](Cc1c[nH]c2ccccc12)C(=O)N[C@H](C(=O)O)[C@@H](C)O	7.27
CC[C@H](C)[C@H](NC(=O)[C@H](CC(=O)O)NC(=O)[C@@H](N)CC(C)C)C(=O)N[C@@H](CCC(=O)O)C(=O)N[C@@H](CC(C)C)C(=O)N[C@@H](CCC(N)=O)C(=O)N[C@@H](CCCCN)C(=O)N[C@H](C(=O)N[C@@H](CCC(=O)O)C(=O)N[C@@H](C)C(=O)N[C@H](C(=O)N[C@@H](CCC(N)=O)C(=O)N[C@@H](CC(C)C)C(=O)N[C@@H](C)C(=O)N[C@H](C(=O)O)[C@@H](C)O)[C@@H](C)O)[C@@H](C)O	8.64
